Overview of reported hGLP1 pEC50 (cAMP) across a group of binders:
Molecular target: human GLP-1 receptor (GLP-1R) (human, UniProt P43220 24-463)
Sequence (P43220 24-463): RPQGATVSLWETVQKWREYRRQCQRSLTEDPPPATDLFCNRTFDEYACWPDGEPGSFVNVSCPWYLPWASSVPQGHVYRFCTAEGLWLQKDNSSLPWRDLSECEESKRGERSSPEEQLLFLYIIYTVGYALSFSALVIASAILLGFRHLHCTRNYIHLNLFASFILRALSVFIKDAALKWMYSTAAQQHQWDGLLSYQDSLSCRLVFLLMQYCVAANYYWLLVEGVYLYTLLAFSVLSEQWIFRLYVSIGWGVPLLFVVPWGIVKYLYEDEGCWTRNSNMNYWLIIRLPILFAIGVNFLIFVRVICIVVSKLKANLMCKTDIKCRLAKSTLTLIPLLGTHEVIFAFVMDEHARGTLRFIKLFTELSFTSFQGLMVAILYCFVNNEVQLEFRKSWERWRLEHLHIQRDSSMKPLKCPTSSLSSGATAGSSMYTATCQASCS
Assay: cell-based or functional assay
Where no end group is shown, it is not given here. [ ]: non-standard residue; d: D form. Aib = CC(C)(N)C(=O)O
test readout: hGLP1 pEC50 (cAMP)

| binder | reported result |
| --- | --- |
| YSQGTFTSDYSKYLDSARAQEFVKWLEDEPKSKSPPPS [Compound A81] | < 9 pEC50 |
| YSHGTFTSDYSKYLD[Aib]KRAQEFV[Aib]HLEDEPSSGKPPPS [Compound A89] | < 9 pEC50 |
| YSQGTFTSDYSKYLD[Aib]KAAQEFV[Aib]WLEDEPSSGKPPPS [Compound A96] | < 9 pEC50 |
